The reported measurements were obtained from PubChem BioAssay.

Assay notes: inhibitors of hydroxyurea-induced Chk1 phosphorylation, primary screen, imaging, HeLa, phospho-Chk1 antibody, percent positive cells (AID 1186)
Condition description: hydroxyurea-induced phospho-Chk1 immunofluorescence imaging, higher = more signal
Metric: z-score
Reply briefly: the number, and no unit.

Study these solved cases before continuing.
COC(=O)[C@@]1(Cc2ccc(F)cc2)[C@H]2c3cc(C(=O)N(C)C)n(CCN4CCOCC4)c3C[C@H]2CN1C(=O)c1ccccc1; -0.366
COc1ccc([Si](C)(C)[C@H]2[C@H](CCO)O[C@@]3(C(=O)N(Cc4ccc(N5CCOC5=O)cc4)c4ccccc43)[C@@H]2C)cc1; -0.73
COC(=O)[C@@]1(Cc2ccc(OC)cc2)[C@@H]2[C@@H](CC(=O)[C@H]2CC(=O)C(=O)N2CCCC2)CN1C(=O)c1ccccc1; -0.961

// returns reported z-score for input "CCOC(=O)C1=C(C(=O)OCC)N(S(=O)(=O)CC[Si](C)(C)C)[C@H](c2ccccc2)CC1" -0.184
